All values here come from patent US20220395553A1.

# Tgt: SNAP tagged-CXC4 receptor labeled with terbium (Tag-lite CXCR4 cells, HEK293) (UniProt P61073)
# Sequence (P61073 whole entry): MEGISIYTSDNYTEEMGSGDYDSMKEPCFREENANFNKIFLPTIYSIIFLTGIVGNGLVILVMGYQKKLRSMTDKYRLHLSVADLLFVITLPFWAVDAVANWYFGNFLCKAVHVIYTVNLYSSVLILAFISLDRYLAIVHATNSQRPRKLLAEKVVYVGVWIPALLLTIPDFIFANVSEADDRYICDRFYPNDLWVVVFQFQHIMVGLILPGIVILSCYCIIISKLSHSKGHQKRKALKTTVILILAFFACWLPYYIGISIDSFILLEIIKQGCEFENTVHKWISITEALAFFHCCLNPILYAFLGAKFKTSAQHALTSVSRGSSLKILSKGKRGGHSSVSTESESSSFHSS
# Test method notes: HTRF competition on Tag-lite CXCR4 HEK293 cells; competitor labelled CXCL12
Square brackets hold non-standard residues; d marks the D form. Ends that are not written are not given here.
Kindly supply the reported Percent Inhibition of CXCR4/CXCL12 Binding (400 nM peptide) values for the records listed here.
Report the value in % with no unit label.

binder LRRYHHSVRSSLRPYTK-NH2 [SEQ ID NO: 16] , Percent Inhibition of CXCR4/CXCL12 Binding (400 nM peptide) observed: -2

binder LERYHHSVRSSLRPYTK-NH2 [SEQ ID NO: 56] , Percent Inhibition of CXCR4/CXCL12 Binding (400 nM peptide) observed: 79

binder LERYHHS[dA]RSSLRPYTK-NH2 (N-terminus assumed; SMILES CC(C)C[C@H](NC(=O)[C@H](CO)NC(=O)[C@H](CO)NC(=O)[C@H](CCCNC(=N)N)NC(=O)[C@@H](C)NC(=O)[C@H](CO)NC(=O)[C@H](Cc1c[nH]cn1)NC(=O)[C@H](Cc1c[nH]cn1)NC(=O)[C@H](Cc1ccc(O)cc1)NC(=O)[C@H](CCCNC(=N)N)NC(=O)[C@H](CCC(=O)O)NC(=O)[C@@H](N)CC(C)C)C(=O)N[C@@H](CCCNC(=N)N)C(=O)N1CCC[C@H]1C(=O)N[C@@H](Cc1ccc(O)cc1)C(=O)N[C@H](C(=O)N[C@@H](CCCCN)C(N)=O)[C@@H](C)O) [SEQ ID NO: 57] , Percent Inhibition of CXCR4/CXCL12 Binding (400 nM peptide) observed: 77

binder LERYHHT[dA]RSSLRPYTK [SEQ ID NO: 40] , Percent Inhibition of CXCR4/CXCL12 Binding (400 nM peptide) observed: 76
